assayProcedure: bacterial viability reduction in E. coli – absorbance, OD600, counter-screen for AddAB inhibitor project, primary screen (AID 449728);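 note: uninfected addAB+ strain grown without phage in ampicillin broth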
statedConditions: E. coli V3065 growth, 18 h, at 11.9 µM
Hit rate of the full screen: of about 330,000 compounds, about 900 (0.27%) were called active.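 Rule for the calls: active = inhibition above the campaign's mean inhibition across all tested compounds plus 3 SD (cut at about 9.9% in these data); inactive = the rest.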 Only a selection was taken, and actives are over-represented in it overall.
Labels: True = active, False = inactive

compound: CC[C@H]1OC(=O)[C@H](C)[C@@H](O[C@H]2C[C@@](C)(OC)[C@@H](O)[C@H](C)O2)[C@H](C)[C@@H](O[C@@H]2O[C@H](C)C[C@H](N(C)C)[C@H]2O)[C@](C)(O)C[C@@H](C)[C@@H]2N[C@@H](COCCOC)O[C@H]([C@H]2C)[C@]1(C)O
discreteLabel: True
//
compound: CCOc1ccc(OCCSc2nc3ccccc3n2CC(=O)O)cc1
discreteLabel: False
//
compound: Cc1onc(NC(=O)c2ccc([N+](=O)[O-])o2)c1Br
discreteLabel: False
//
compound: Cc1cccc(NC(=O)Cn2cc(C(=O)c3ccco3)c3ccccc32)c1
discreteLabel: True
//
compound: Cc1ccc(OC(=O)c2ccccc2C(=O)OCC(F)(F)C(F)F)cc1
discreteLabel: False
//
compound: CN1CCN(C(c2cc3cc4c(cc3[nH]c2=O)OCCO4)c2nnnn2C2CCCC2)CC1 (stereo not drawn)
discreteLabel: False
//
compound: COc1ccc(CCNC(=O)/C(C#N)=C2\N=C(NC(=O)c3cccs3)c3ccccc32)cc1
discreteLabel: False
//
compound: C=CCN(Cc1nc(-c2cc(OC)c3c(c2)OCO3)oc1C)C1CCS(=O)(=O)C1 (stereo not drawn)
discreteLabel: False
